Literature roundup of Monoglyceride lipase (Mus musculus, UniProt O35678) data, read-out pIC50.
pIC50: −log10 of the molar value.

For orientation, consider the following solved cases.
[in] For Monoglyceride lipase (Mus musculus, UniProt O35678), give the measured pIC50 of the entry CC(=O)N(C)c1cnn(C(=O)N2CCC3(CCN(Cc4cc(N5CCOCC5)cc(C(F)(F)F)c4)C3)C2)c1 (stereo not shown)
[out] 6.00 to 7.00

[in] Name the recorded pIC50 of `O=C(OC(C(F)(F)F)C(F)(F)F)N1CCC2(CCCN2C(=O)c2cc3cccc(F)c3s2)CC1` , assay system Monoglyceride lipase (Mus musculus, UniProt O35678).
[out] > 7.00

[in] Give Monoglyceride lipase (Mus musculus, UniProt O35678) pIC50 for the following molecule: `O=C(OC(C(F)(F)F)C(F)(F)F)N1CCC2(CCCN2C(=O)c2cc3cccc(Cl)c3s2)CC1`
[out] > 7.00

[in] # return pIC50 of CC(=O)N(C)c1cnn(C(=O)N2CC3CN(Cc4ccc(Cl)c(C(F)(F)F)c4)CC3C2)c1 (stereo not shown) (system: Monoglyceride lipase (Mus musculus, UniProt O35678))
[out] ≥ 7.00

Further cases:
[in] Provide pIC50, recorded with Monoglyceride lipase (Mus musculus, UniProt O35678), of `CN(Cc1cc(N2CCCC2)cc(C(F)(F)F)c1)C1(C)CCN(C(=O)OC(C(F)(F)F)C(F)(F)F)CC1`
[out] 6.00 to 7.00

[in] Please report the measured pIC50 for `Cc1cc(C)c2[nH]c(C(=O)N3CCCC34CCN(C(=O)OC(C(F)(F)F)C(F)(F)F)CC4)c(C)c2c1` tested on Monoglyceride lipase (Mus musculus, UniProt O35678).
[out] > 7.00

[in] # lookup: Monoglyceride lipase (Mus musculus, UniProt O35678) pIC50, key = CC(=O)N1CCC2(CCN(c3ccccc3CN3CCN(C(=O)OC(C(F)(F)F)C(F)(F)F)CC3)C2)C1 (stereo not shown)
[out] > 7.00

---

Study the reported IC50 values for Monoglyceride lipase (Mus musculus, UniProt O35678) given below; they originate from different publications.

[in] // fetch IC50; item: `O=C(OC(C(F)(F)F)C(F)(F)F)N1CCC2(CCCN2C(=O)c2ccn(-c3ccc(Cl)cc3)n2)CC1` ; system: Monoglyceride lipase (Mus musculus, UniProt O35678)
[out] < 100 nM

[in] System Monoglyceride lipase (Mus musculus, UniProt O35678). Read-out IC50. Item `O=C(OC(C(F)(F)F)C(F)(F)F)N1CCC2(CCCN2Cc2sc3ccccc3c2Cl)CC1` . Report value.
[out] < 100 nM

[in] Please report the measured IC50 for `CS(=O)(=O)N1CCN(c2cccc(Cl)c2CN2CC3(CCN(C(=O)OC(C(F)(F)F)C(F)(F)F)CC3)C2)CC1` tested on Monoglyceride lipase (Mus musculus, UniProt O35678).
[out] < 100 nM

[in] Report the value of IC50 obtained on Monoglyceride lipase (Mus musculus, UniProt O35678) for `CC(=O)N1CCCc2cccc(CN3CCC4(CCN(C(=O)OC(C(F)(F)F)C(F)(F)F)CC4)C3)c21` .
[out] < 100 nM

[in] Recall the reported IC50 of `CC(=O)N(C)c1cnn(C(=O)N2CCC3(CC2)CN(Cc2ccc(-c4ccccc4)cc2C)C3)c1` when tested on Monoglyceride lipase (Mus musculus, UniProt O35678).
[out] ≤ 100 nM

[in] Consider the compound CC(=O)N(C)c1cnn(C(=O)N2CCC3(CCN(Cc4cccc(Cl)c4Cl)C3)C2)c1 (stereo not shown) tested on Monoglyceride lipase (Mus musculus, UniProt O35678); state its IC50.
[out] 100 to 1000 nM

[in] State recorded IC50 with Monoglyceride lipase (Mus musculus, UniProt O35678), entry `CC(=O)N(C)c1cnn(C(=O)N2CCC3(CCN(Cc4cccc(Cl)c4)C3)CC2)c1` , no comment.
[out] 100 to 1000 nM
